- condition_info: in acetone, 323.15 K
quantity_name: solubility (mole fraction)
Answer with a bare number; do not write a unit.

Tell me its solubility (mole fraction) given O=C1NC(=O)C2C3C=CC(C3)C12 (stereo unspecified) as the entry.
0.0414

====

- condition_info: in n-butyl acetate, 278.15 K
quantity_name: solubility (mole fraction)
Answer with a bare number; do not write a unit.

Tell me its solubility (mole fraction) given O=C1NC(=O)C2C3C=CC(C3)C12 (stereo unspecified) as the entry.
0.00431

====

- condition_info: in acetone, 308.15 K
quantity_name: solubility (mole fraction)
Answer with a bare number; do not write a unit.

Tell me its solubility (mole fraction) given O=C1NC(=O)C2C3C=CC(C3)C12 (stereo unspecified) as the entry.
0.029

====

- condition_info: in isopropyl acetate, 313.15 K
quantity_name: solubility (mole fraction)
Answer with a bare number; do not write a unit.

Tell me its solubility (mole fraction) given O=C1NC(=O)C2C3C=CC(C3)C12 (stereo unspecified) as the entry.
0.0143

====

- condition_info: in n-propyl acetate, 323.15 K
quantity_name: solubility (mole fraction)
Answer with a bare number; do not write a unit.

Tell me its solubility (mole fraction) given O=C1NC(=O)C2C3C=CC(C3)C12 (stereo unspecified) as the entry.
0.0221

====

- condition_info: in ethanol, 298.15 K
quantity_name: solubility (mole fraction)
Answer with a bare number; do not write a unit.

Tell me its solubility (mole fraction) given O=C1NC(=O)C2C3C=CC(C3)C12 (stereo unspecified) as the entry.
0.00949

====

- condition_info: in DMF, 308.15 K
quantity_name: solubility (mole fraction)
Answer with a bare number; do not write a unit.

Tell me its solubility (mole fraction) given O=C1NC(=O)C2C3C=CC(C3)C12 (stereo unspecified) as the entry.
0.129

====

- condition_info: in acetone, 303.15 K
quantity_name: solubility (mole fraction)
Answer with a bare number; do not write a unit.

Tell me its solubility (mole fraction) given O=C1NC(=O)C2C3C=CC(C3)C12 (stereo unspecified) as the entry.
0.0255

====

- condition_info: in n-propyl acetate, 288.15 K
quantity_name: solubility (mole fraction)
Answer with a bare number; do not write a unit.

Tell me its solubility (mole fraction) given O=C1NC(=O)C2C3C=CC(C3)C12 (stereo unspecified) as the entry.
0.00782

====

- condition_info: in acetone, 318.15 K
quantity_name: solubility (mole fraction)
Answer with a bare number; do not write a unit.

Tell me its solubility (mole fraction) given O=C1NC(=O)C2C3C=CC(C3)C12 (stereo unspecified) as the entry.
0.0369

====

- condition_info: in n-propyl acetate, 293.15 K
quantity_name: solubility (mole fraction)
Answer with a bare number; do not write a unit.

Tell me its solubility (mole fraction) given O=C1NC(=O)C2C3C=CC(C3)C12 (stereo unspecified) as the entry.
0.00907

====

- condition_info: in methanol, 308.15 K
quantity_name: solubility (mole fraction)
Answer with a bare number; do not write a unit.

Tell me its solubility (mole fraction) given O=C1NC(=O)C2C3C=CC(C3)C12 (stereo unspecified) as the entry.
0.0182

====

- condition_info: in DMF, 288.15 K
quantity_name: solubility (mole fraction)
Answer with a bare number; do not write a unit.

Tell me its solubility (mole fraction) given O=C1NC(=O)C2C3C=CC(C3)C12 (stereo unspecified) as the entry.
0.081

====

- condition_info: in DMF, 313.15 K
quantity_name: solubility (mole fraction)

Tell me its solubility (mole fraction) given O=C1NC(=O)C2C3C=CC(C3)C12 (stereo unspecified) as the entry.
0.145

====

- condition_info: in 1,4-dioxane, 288.15 K
quantity_name: solubility (mole fraction)
Answer with a bare number; do not write a unit.

Tell me its solubility (mole fraction) given O=C1NC(=O)C2C3C=CC(C3)C12 (stereo unspecified) as the entry.
0.0363

====

- condition_info: in n-butyl acetate, 288.15 K
quantity_name: solubility (mole fraction)
Answer with a bare number; do not write a unit.

Tell me its solubility (mole fraction) given O=C1NC(=O)C2C3C=CC(C3)C12 (stereo unspecified) as the entry.
0.00617

====

- condition_info: in isopropyl acetate, 318.15 K
quantity_name: solubility (mole fraction)
Answer with a bare number; do not write a unit.

Tell me its solubility (mole fraction) given O=C1NC(=O)C2C3C=CC(C3)C12 (stereo unspecified) as the entry.
0.0164

====

- condition_info: in ethyl acetate, 298.15 K
quantity_name: solubility (mole fraction)
Answer with a bare number; do not write a unit.

Tell me its solubility (mole fraction) given O=C1NC(=O)C2C3C=CC(C3)C12 (stereo unspecified) as the entry.
0.0146

====

- condition_info: in isopropyl acetate, 278.15 K
quantity_name: solubility (mole fraction)
Answer with a bare number; do not write a unit.

Tell me its solubility (mole fraction) given O=C1NC(=O)C2C3C=CC(C3)C12 (stereo unspecified) as the entry.
0.0046

====

- condition_info: in n-butyl acetate, 323.15 K
quantity_name: solubility (mole fraction)
Answer with a bare number; do not write a unit.

Tell me its solubility (mole fraction) given O=C1NC(=O)C2C3C=CC(C3)C12 (stereo unspecified) as the entry.
0.0178

====

- condition_info: in n-propyl acetate, 298.15 K
quantity_name: solubility (mole fraction)
Answer with a bare number; do not write a unit.

Tell me its solubility (mole fraction) given O=C1NC(=O)C2C3C=CC(C3)C12 (stereo unspecified) as the entry.
0.0106

====

- condition_info: in n-butyl acetate, 308.15 K
quantity_name: solubility (mole fraction)
Answer with a bare number; do not write a unit.

Tell me its solubility (mole fraction) given O=C1NC(=O)C2C3C=CC(C3)C12 (stereo unspecified) as the entry.
0.0117

====

- condition_info: in methanol, 313.15 K
quantity_name: solubility (mole fraction)
Answer with a bare number; do not write a unit.

Tell me its solubility (mole fraction) given O=C1NC(=O)C2C3C=CC(C3)C12 (stereo unspecified) as the entry.
0.0219

====

- condition_info: in methanol, 318.15 K
quantity_name: solubility (mole fraction)

Tell me its solubility (mole fraction) given O=C1NC(=O)C2C3C=CC(C3)C12 (stereo unspecified) as the entry.
0.026

====

- condition_info: in ethyl acetate, 313.15 K
quantity_name: solubility (mole fraction)
Answer with a bare number; do not write a unit.

Tell me its solubility (mole fraction) given O=C1NC(=O)C2C3C=CC(C3)C12 (stereo unspecified) as the entry.
0.0223

====

- condition_info: in ethyl acetate, 278.15 K
quantity_name: solubility (mole fraction)
Answer with a bare number; do not write a unit.

Tell me its solubility (mole fraction) given O=C1NC(=O)C2C3C=CC(C3)C12 (stereo unspecified) as the entry.
0.00821

====

- condition_info: in ethanol, 323.15 K
quantity_name: solubility (mole fraction)
Answer with a bare number; do not write a unit.

Tell me its solubility (mole fraction) given O=C1NC(=O)C2C3C=CC(C3)C12 (stereo unspecified) as the entry.
0.0233

====

- condition_info: in DMF, 323.15 K
quantity_name: solubility (mole fraction)
Answer with a bare number; do not write a unit.

Tell me its solubility (mole fraction) given O=C1NC(=O)C2C3C=CC(C3)C12 (stereo unspecified) as the entry.
0.177

====

- condition_info: in 2-ethoxyethanol, 313.15 K
quantity_name: solubility (mole fraction)
Answer with a bare number; do not write a unit.

Tell me its solubility (mole fraction) given O=C1NC(=O)C2C3C=CC(C3)C12 (stereo unspecified) as the entry.
0.0481

====

- condition_info: in n-propyl acetate, 308.15 K
quantity_name: solubility (mole fraction)
Answer with a bare number; do not write a unit.

Tell me its solubility (mole fraction) given O=C1NC(=O)C2C3C=CC(C3)C12 (stereo unspecified) as the entry.
0.0145

====

- condition_info: in 1,4-dioxane, 313.15 K
quantity_name: solubility (mole fraction)
Answer with a bare number; do not write a unit.

Tell me its solubility (mole fraction) given O=C1NC(=O)C2C3C=CC(C3)C12 (stereo unspecified) as the entry.
0.0738
